In this section, each of the compounds is paired with its reported pIC50.
- SYSTEM TESTED: human noradrenaline transporter (hNET) (Homo sapiens)
- Construct: expressed in transfected cells; host or cells: COS-7 cells (ATCC), transient transfection with metafectene
- Sequence (P23975 whole entry): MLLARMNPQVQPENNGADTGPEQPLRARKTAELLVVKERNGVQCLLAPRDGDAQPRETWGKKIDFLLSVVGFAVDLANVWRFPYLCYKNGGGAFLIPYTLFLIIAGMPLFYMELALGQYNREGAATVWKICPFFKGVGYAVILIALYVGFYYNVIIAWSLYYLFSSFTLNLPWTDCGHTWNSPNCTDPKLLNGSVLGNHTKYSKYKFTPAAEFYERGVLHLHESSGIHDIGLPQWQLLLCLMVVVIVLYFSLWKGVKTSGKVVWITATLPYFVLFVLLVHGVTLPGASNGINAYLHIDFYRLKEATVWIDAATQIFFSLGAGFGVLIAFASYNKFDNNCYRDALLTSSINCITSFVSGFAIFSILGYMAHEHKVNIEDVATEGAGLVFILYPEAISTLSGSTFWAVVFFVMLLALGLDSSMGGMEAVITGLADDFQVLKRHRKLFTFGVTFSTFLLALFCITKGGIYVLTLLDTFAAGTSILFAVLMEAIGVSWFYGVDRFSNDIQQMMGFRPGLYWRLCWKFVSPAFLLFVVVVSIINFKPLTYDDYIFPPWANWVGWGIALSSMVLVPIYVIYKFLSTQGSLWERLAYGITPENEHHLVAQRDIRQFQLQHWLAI
- PROTOCOL: biochemical
- Type: binding
- REPORTED CONDITIONS: Av IC50 Displacement of 3H-nisoxetine from hNET
pIC50: −log10 of the molar value. Residues, ends and D or L forms follow the SMILES beside them.
METRIC NAME: pIC50

[[record]]
compound = "CC(C)C[C@@H]1NC(=O)[C@H](CCCCN)NC(=O)[C@H](CC(N)=O)NC(=O)CNC(=O)[C@@H]2CSSC[C@H](NC1=O)C(=O)N[C@@H](Cc1c[nH]cn1)C(=O)N1CCC[C@H]1C(=O)N[C@H](C(N)=O)CSSC[C@H](NC(=O)[C@@H](NC(=O)CNC(=O)[C@H](CC(N)=O)NC(=O)[C@@H](N)Cc1ccc(O)cc1)C(C)C)C(=O)N2 [compound 184] (HELM PEPTIDE1{Y.N.G.V.C.C.G.N.K.L.C.H.P.C.[am]}$PEPTIDE1,PEPTIDE1,5:R3-14:R3|PEPTIDE1,PEPTIDE1,6:R3-11:R3$$$V2.0)"
metric_name = "pIC50"
number = 4.10

[[record]]
compound = "CC(C)C[C@@H]1NC(=O)[C@H](CCCCN)NC(=O)[C@H](Cc2ccc(O)cc2)NC(=O)CNC(=O)[C@@H]2CSSC[C@H](NC1=O)C(=O)N[C@@H](Cc1c[nH]cn1)C(=O)N1CCC[C@H]1C(=O)N[C@H](C(N)=O)CSSC[C@H](NC(=O)[C@@H](NC(=O)[C@H](CC(=O)O)NC(=O)[C@@H](N)CC(N)=O)C(C)C)C(=O)N2 [compound 63] (HELM PEPTIDE1{N.D.V.C.C.G.Y.K.L.C.H.P.C.[am]}$PEPTIDE1,PEPTIDE1,4:R3-13:R3|PEPTIDE1,PEPTIDE1,5:R3-10:R3$$$V2.0)"
metric_name = "pIC50"
number = 6.72

